From: ChEMBL document CHEMBL3352437

Consider the following compounds; for each one, report its Activity.
# test method notes: Cytotoxicity against human MCF10A cells assessed as dead cells at 1 uM after 24 hrs
# Type: cell-based
# measurement context: mcf-10a
Provide the reading as a plain figure in %.

Q) Which Activity value is on record for "Cc1ccc(/C=C2/CN(C(=O)CC(=O)N3C/C(=C\c4ccc(C)cc4)C(=O)/C(=C/c4ccc(C)cc4)C3)C/C(=C\c3ccc(C)cc3)C2=O)cc1" ?
A) 15.4

Q) I would be grateful if you could share the reported Activity for "COc1ccc(/C=C2\CN(C(=O)C(=O)N3C/C(=C\c4ccc(OC)cc4)C(=O)/C(=C/c4ccc(OC)cc4)C3)C/C(=C\c3ccc(OC)cc3)C2=O)cc1" .
A) 9.9

Q) Requested read-out: Activity. Entry: "O=C1/C(=C\c2ccccc2)CN(CCCN2C/C(=C\c3ccccc3)C(=O)/C(=C/c3ccccc3)C2)C/C1=C\c1ccccc1"
A) 19.4

Q) GET /values?readout=Activity&item= "COc1ccc(/C=C2/CN(C(=O)CC(=O)N3C/C(=C\c4ccc(OC)c(OC)c4)C(=O)/C(=C/c4ccc(OC)c(OC)c4)C3)C/C(=C\c3ccc(OC)c(OC)c3)C2=O)cc1OC"
A) 6.1

Q) For the compound shown here, "O=C1/C(=C\c2ccc(F)cc2)CN(C(=O)CC(=O)N2C/C(=C\c3ccc(F)cc3)C(=O)/C(=C/c3ccc(F)cc3)C2)C/C1=C\c1ccc(F)cc1" , give the reported Activity.
A) 7

Q) # input compound: "O=C1/C(=C\c2ccc(Cl)cc2)CN(C(=O)CC(=O)N2C/C(=C\c3ccc(Cl)cc3)C(=O)/C(=C/c3ccc(Cl)cc3)C2)C/C1=C\c1ccc(Cl)cc1" ; wanted: its Activity
A) 3.1
